- Assay System: Beta-2 adrenergic receptor (Homo sapiens)
- Sequence (P07550 whole entry): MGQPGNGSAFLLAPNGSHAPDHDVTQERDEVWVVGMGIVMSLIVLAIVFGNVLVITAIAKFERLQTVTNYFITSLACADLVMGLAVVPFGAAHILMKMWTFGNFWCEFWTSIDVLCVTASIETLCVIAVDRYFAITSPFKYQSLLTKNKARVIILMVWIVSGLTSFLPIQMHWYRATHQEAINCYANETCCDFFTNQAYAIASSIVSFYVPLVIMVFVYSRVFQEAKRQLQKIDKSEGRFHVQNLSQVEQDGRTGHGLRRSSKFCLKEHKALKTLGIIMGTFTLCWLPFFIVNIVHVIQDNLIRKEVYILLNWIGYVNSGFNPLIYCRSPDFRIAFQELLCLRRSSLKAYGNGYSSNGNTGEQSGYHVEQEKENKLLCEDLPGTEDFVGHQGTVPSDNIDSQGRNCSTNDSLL
- Experiment Notes: Antagonist activity at human beta2-adrenergic receptor expressed in CHO-K1 cells co-expressing CRE-SPAP reporter gene assessed as inhibition of fenoterol-induced CRE-SPAP production by measuring rightward shift of the fenoterol concentration response curve measured after 5 hrs incubation
- Format: functional, cell-based
- Particulars: read-out: pKd (converted)
// NB: equality with 2000 nM counts as False; only Kd strictly below is True

Please let me know if O[C@@H](CNCC1COc2ccccc2O1)COc1cccc2cnccc12 (stereo partly specified) shows Kd below 2000 nM. True

Please let me know if O=c1ccc2ccc(OC[C@@H](O)CNCC3COc4ccccc4O3)cc2o1 (stereo partly specified) shows Kd below 2000 nM. False

Please let me know if CCc1ccccc1OC[C@@H](O)CN[C@H]1CCCc2ccccc21 shows Kd below 2000 nM. True

Please let me know if O[C@@H](CNCC1COc2ccccc2O1)COc1ccc2c(c1)OCO2 (stereo partly specified) shows Kd below 2000 nM. True

Please let me know if CC(=O)NCc1cccc(OC[C@@H](O)CNCCc2ccc(NS(=O)(=O)c3ccccc3)cc2)c1 shows Kd below 2000 nM. True

Please let me know if O=C1COc2cc(OC[C@@H](O)CNCC3COc4ccccc4O3)ccc21 (stereo partly specified) shows Kd below 2000 nM. False
